experimental protocol: in vivo
assay conditions: male, albino, rabbit, in vivo, po, 150 mg/kg, AUC0–6h, TC 150 mg/kg orally; EDTA-treated rabbits
Description: Rabbits were supplied solid food for rabbits (CR-3M, CLEA Japan, Inc., Tokyo, Japan), and the average amount of CR-3M that each rabbit ingested was 100–110 g/day. CR-3M contains various vitamins and cationic metals including Ca, Mg, and iron (Fe^2+, Fe^3+) in addition to various energy sources. […] Coprophagy was not prevented in control rabbits. After administration orally by stomach intubation, blood samples (100 μL each) were taken periodically from the ear vein at 0.25, 0.5, 1, 2, 4 and 6 h. […]
Where a name gives a salt, the structure may show the parent alone.
recorded endpoint: AUC(0-t) (ng·h/mL)
I only need the number, in ng·h/mL, no unit after it.

Exercise: GET /values?readout=AUC(0-t)&item= CN(C)[C@@H]1C(O)=C(C(N)=O)C(=O)[C@@]2(O)C(O)=C3C(=O)c4c(O)cccc4[C@@](C)(O)[C@H]3C[C@@H]12 [TC, tetracycline hydrochloride]
Key: 4680
